Target: endogenously expressed TGR5 in NCI H716 (Homo sapiens)
Construct: human caecum carcinoma cell line NCI-H716 which endogenously expresses human TGR5; endogenous in cells; host or cells: NCI-H716
Sequence (Q8TDU6 whole entry): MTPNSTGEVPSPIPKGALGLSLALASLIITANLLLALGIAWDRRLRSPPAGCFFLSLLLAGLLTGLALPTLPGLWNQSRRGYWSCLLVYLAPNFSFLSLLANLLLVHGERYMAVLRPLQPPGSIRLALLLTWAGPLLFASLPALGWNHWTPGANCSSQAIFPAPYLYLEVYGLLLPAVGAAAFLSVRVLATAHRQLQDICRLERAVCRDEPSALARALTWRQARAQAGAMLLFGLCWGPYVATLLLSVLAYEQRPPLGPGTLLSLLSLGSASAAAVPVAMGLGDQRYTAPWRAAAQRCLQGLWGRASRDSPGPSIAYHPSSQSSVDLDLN
Assay: Cell-based TGR5 assay, NCI-H716 cells endogenously expressing human TGR5, cAMP by HTRF
Conditions: 30 min at 37 C, 22 nM to 50 μM, read-out: pEC50 endogenously expressed TGR5 in NCI H716 (converted)
EC50: recorded values

Smiles notation	EC50
O=C(CCCCc1cc(Cl)c(CNC2(C(=O)N3CCN(C4CC4)c4ccccc43)CC2)cc1Cl)NC[C@H](O)[C@@H](O)[C@H](O)[C@H](O)CO	< 100 nM
COc1ccccc1N(C)C(=O)C1(OCc2cc(Cl)ccc2Cl)CC1	126 to 1000 nM
O=C(N1CCN(C2CC2)c2ccccc21)C1(OCc2c(Cl)cccc2Cl)CC1	1260 to 50100 nM
